Tested Target: MAST2, Q6P0Q8
Sequence (Q6P0Q8 1099-1202): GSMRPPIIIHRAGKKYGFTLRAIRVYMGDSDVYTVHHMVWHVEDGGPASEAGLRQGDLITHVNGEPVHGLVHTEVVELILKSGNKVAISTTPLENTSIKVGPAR
Assay Remarks: holdup assay
Design: key: below the threshold = too weak to quantify, mostly under pKd 3.1 to 4
Assay Context: plain residues with an end cap or a label only (N-terminal biotin on a linker: ado-ado)
Listing: pKd of selected binders
Metric: pKd

Binder | Endpoint Result
HSGYRLNDYV [CLDN14, O95500] | 3.89
PRAEAEDSFL [PDGFRB, P09619] | 5.62
SGSLKLMTTV [DACT1, Q9NYF0] | 5.36
